The values you see were collected from patent US11673889B2.

test system: human soluble ENPP1 (Homo sapiens)
Construct: 20 ng of human soluble ENPP1
Sequence (P22413 103-925 limits assumed): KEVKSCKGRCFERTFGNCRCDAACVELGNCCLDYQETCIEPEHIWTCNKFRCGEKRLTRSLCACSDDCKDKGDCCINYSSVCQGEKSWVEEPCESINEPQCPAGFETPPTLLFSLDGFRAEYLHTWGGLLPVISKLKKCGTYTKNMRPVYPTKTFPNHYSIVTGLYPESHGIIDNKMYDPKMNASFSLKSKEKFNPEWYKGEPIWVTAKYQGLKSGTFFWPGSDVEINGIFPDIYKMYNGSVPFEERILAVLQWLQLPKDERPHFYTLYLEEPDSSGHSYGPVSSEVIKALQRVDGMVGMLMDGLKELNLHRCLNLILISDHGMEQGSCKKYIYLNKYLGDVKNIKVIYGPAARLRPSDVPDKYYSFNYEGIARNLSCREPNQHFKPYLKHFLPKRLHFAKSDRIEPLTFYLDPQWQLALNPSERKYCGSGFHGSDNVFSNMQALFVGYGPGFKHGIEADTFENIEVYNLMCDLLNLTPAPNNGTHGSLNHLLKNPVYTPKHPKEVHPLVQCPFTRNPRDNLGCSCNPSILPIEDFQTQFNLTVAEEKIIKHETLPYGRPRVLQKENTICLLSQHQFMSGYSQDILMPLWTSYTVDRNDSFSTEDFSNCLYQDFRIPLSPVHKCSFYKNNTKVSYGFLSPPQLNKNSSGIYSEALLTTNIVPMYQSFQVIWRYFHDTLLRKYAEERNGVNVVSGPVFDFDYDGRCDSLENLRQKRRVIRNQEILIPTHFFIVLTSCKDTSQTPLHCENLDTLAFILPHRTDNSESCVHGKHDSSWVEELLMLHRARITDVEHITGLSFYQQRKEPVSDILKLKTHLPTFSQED
assay protocol: ENPP1 activity assay using p-Nitrophenyl-5′-TMP as a substrate
Type: biochemical
Quick list: IC50 per entry.
Dear colleague, please send the value followed by its unit.

* COc1ccc2c(ncc3nc(CN4CCOCC4)n(Cc4ccc(S(N)(=O)=O)c(F)c4)c32)n1 | 1.8 nM
* COc1ccc2c(ncc3cnn(Cc4ccc(S(N)(=O)=O)cn4)c32)n1 [Compound 135a] | 0.66 nM
* COc1ccc2c(ncc3ncn(Cc4ccc(S(N)(=O)=O)cc4C#N)c32)n1 | 0.67 nM
* COc1cc2ncc3ncn(Cc4ccc(S(N)(=O)=O)nc4)c3c2cc1OC | 1.1 nM
* COc1ccc2c(ncc3ncn(CC4CN(S(N)(=O)=O)C4)c32)n1 | 0.54 nM

Now turn to the next molecule.
Ask: Record request: IC50 value, item `COc1ccc2c(ncc3nc(C)n(Cc4cc(F)c(S(N)(=O)=O)cc4F)c32)n1`
Reply: 0.64 nM
